- Measurement notes: Induction of ROS generation in CHOK1 cells at 1 uM using DCFH-DA by fluorescence assay relative to control
- Assay type: cell-based, Cricetulus griseus
- Condition parameters: chinese hamster, cho-k1, 1 µM
Assay metric: Activity (%)
Record the value in %, omitting the unit from your answer.

Memo: COc1cc(/C=C/C(=O)/C=C(/C=C/c2ccc(O)c(OC)c2)NCCO)ccc1O , reported Activity: 93.5

Notebook: COCCCN1C(/C=C/c2ccc(O)cc2)=CC(=O)CC1c1ccc(O)cc1 (centres undefined) , Activity read as 97.8

Activity recorded for this compound, O=C1C=C(/C=C/c2ccc(O)cc2)N(CCO)C(c2ccc(O)cc2)C1 (centres undefined) , is 99.4

Item: COCCNC(=C\C(=O)/C=C/c1ccc(O)c(OC)c1)/C=C/c1ccc(O)c(OC)c1 | Activity: 94

Just so you know, measured Activity for COCCCNC(=C\C(=O)/C=C/c1ccc(O)cc1)/C=C/c1ccc(O)cc1 came out at 99.8

The compound listed as COc1cc(/C=C/C(=O)CC(=O)/C=C/c2ccc(O)c(OC)c2)ccc1O [CURCUMIN] shows Activity equal to 103.9

Record COc1cc(/C=C/C2=CC(=O)CC(c3ccc(O)c(OC)c3)N2CCCO)ccc1O (centres undefined) . Reported Activity: 91.8

get_value(item= O=C(/C=C/c1ccc(O)cc1)CC(=O)/C=C/c1ccc(O)cc1 [BISDEMETHOXYCURCUMIN] , readout=Activity) returns 104.6

Memo: COCCCNC(=C\C(=O)/C=C/c1ccc(O)c(OC)c1)/C=C/c1ccc(O)c(OC)c1 , reported Activity: 98.3

====

- Measurement notes: Cytotoxicity against CHOK1 cells assessed as decrease in cell viability after 48 hrs by MTT assay
- Format: toxicity, cell-based, Cricetulus griseus
- Condition parameters: Chinese hamster, CHO-K1 cells
Give measured IC50 at 48 h for each item. Keep answers brief.
Output spec: scalar in µM, unitless text.

IC50 at 48 h measured on O=C(/C=C/c1ccc(O)cc1)CC(=O)/C=C/c1ccc(O)cc1 = 91.4

Lab note: COc1cc(/C=C/C(=O)CC(=O)/C=C/c2ccc(O)c(OC)c2)ccc1O gave IC50 at 48 h of 42

IC50 at 48 h in this record for COc1cc(/C=C/C(=O)/C=C(/C=C/c2ccc(O)c(OC)c2)NCCO)ccc1O : 87.5

The value of IC50 at 48 h measured for the compound COCCCNC(=C\C(=O)/C=C/c1ccc(O)cc1)/C=C/c1ccc(O)cc1 turned out to be 44.9

Record summary for O=C(/C=C(/C=C/c1ccc(O)cc1)NCCCO)/C=C/c1ccc(O)cc1 : reported IC50 at 48 h = 39.1

For record O=C(/C=C(/C=C/c1ccc(O)cc1)NCCO)/C=C/c1ccc(O)cc1 the listed IC50 at 48 h is 66

Quick note, IC50 at 48 h for COCCCNC(=C\C(=O)/C=C/c1ccc(O)c(OC)c1)/C=C/c1ccc(O)c(OC)c1 landed at 53.7

IC50 at 48 h reading for COc1cc(/C=C/C(=O)/C=C(/C=C/c2ccc(O)c(OC)c2)NCCCO)ccc1O : 88.5

Lab book: IC50 at 48 h of COc1cccc2c1C(=O)c1c(O)c3c(c(O)c1C2=O)C[C@@](O)(C(=O)CO)C[C@@H]3O[C@H]1C[C@H](N)[C@H](O)[C@H](C)O1 noted as 4.2

Memo: COCCNC(=C\C(=O)/C=C/c1ccc(O)cc1)/C=C/c1ccc(O)cc1 , reported IC50 at 48 h: 34.9

IC50 at 48 h in this record for COCCNC(=C\C(=O)/C=C/c1ccc(O)c(OC)c1)/C=C/c1ccc(O)c(OC)c1 : 63
